Each recorded value in this set is attributed to the RNAGym collection of RNA variant scans (doi:10.1021/acssynbio.7b00057).

B1: Pistol ribozyme (parent)
chain: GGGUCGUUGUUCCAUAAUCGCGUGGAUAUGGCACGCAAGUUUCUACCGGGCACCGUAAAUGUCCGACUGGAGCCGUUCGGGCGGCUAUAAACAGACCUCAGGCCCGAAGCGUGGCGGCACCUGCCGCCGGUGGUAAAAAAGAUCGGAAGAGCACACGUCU

# Variants of: B1
# procedure_details: aptazyme ON/OFF ratio, guanine; higher = stronger switching; co-transcriptional cleavage with and without guanine
The following variants are listed with their measured aptazyme ON/OFF ratio values.
Answer using only a numeral; do not append any unit.

U7A U8G U10A U11C C12U	1.29
U7C U10G U11C	1.1
U7A U8C G9U U10C U11G C13G	1.31
U7A U8G G9A U10A U11A C12A C13G	1.13
U7A U11A C13G	1.16
U7G U8A G9U U10A U11C C12A C13A	1.1
U7G U8A C13G	1.41
U7C U8C G9A U10C C12A C13U	1.21

## Task Please look up its aptazyme ON/OFF ratio: U7G U8C U11G C12G C13G
## Result 1.11

## Task Please look up its aptazyme ON/OFF ratio: U8C G9U U10C C12G C13U
## Result 1.24

## Task Please look up its aptazyme ON/OFF ratio: U7C U8C G9U U10C U11A C12U
## Result 1.26

## Task Please look up its aptazyme ON/OFF ratio: U7A G9U U10A U11C C12A
## Result 1.26

## Task Please look up its aptazyme ON/OFF ratio: U7A U8G G9U U10A C12U C13A
## Result 1.32

## Task Please look up its aptazyme ON/OFF ratio: U7A U8C G9C U11A C12A C13U
## Result 1.05

## Task Please look up its aptazyme ON/OFF ratio: U8A G9U U11A C12G C13G
## Result 1.3
